Would you kindly list logP for each of these molecules?
test: Octanol-buffer partition coefficient, log P of the compound by HPLC analysis; format: physicochemical
Write the number on its own, no unit after it.

Given item Cc1ccc(C(C)C)c(OC(=O)C(C)c2ccc(CC(C)C)cc2)c1 (racemic) , the value recorded as its logP is 6.27

Given item CC(C)Cc1ccc(C(C)C(=O)O)cc1 (racemic) , the value recorded as its logP is 3.71

Given item CC(C)Cc1ccc(C(C)C(=O)OC2CC(C)CCC2C(C)C)cc1 (centres undefined) , the value recorded as its logP is 6.69

Given item C=CCc1ccc(OC(=O)C(C)c2ccc(CC(C)C)cc2)c(OC)c1 (racemic) , the value recorded as its logP is 5.63
